B1: library; numbered along this chain (parent)
chain: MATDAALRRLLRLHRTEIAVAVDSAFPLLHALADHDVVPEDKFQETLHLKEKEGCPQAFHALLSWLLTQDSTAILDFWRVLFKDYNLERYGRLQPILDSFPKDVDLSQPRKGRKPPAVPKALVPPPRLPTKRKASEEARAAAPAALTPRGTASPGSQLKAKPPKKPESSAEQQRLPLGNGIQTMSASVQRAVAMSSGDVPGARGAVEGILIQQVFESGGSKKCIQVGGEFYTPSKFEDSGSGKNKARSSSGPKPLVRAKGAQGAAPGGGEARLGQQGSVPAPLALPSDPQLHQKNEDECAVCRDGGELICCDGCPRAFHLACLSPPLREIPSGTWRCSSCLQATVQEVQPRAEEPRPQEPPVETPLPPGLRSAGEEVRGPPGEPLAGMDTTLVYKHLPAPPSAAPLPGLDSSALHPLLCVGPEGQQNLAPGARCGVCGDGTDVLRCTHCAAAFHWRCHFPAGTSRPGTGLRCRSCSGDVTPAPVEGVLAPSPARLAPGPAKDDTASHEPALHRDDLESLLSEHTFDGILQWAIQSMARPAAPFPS

# Variants of: B1
# MEASUREMENT NOTES: AIRE transcriptional activation functional score (insulin promoter-GFP; nonsense median 0, synonymous median 1) (normalised score); higher = higher AIRE activity (more reporter activation)
# RUN PARAMETERS: with insulin promoter-GFP reporter in HEK293
Decision: AIRE transcriptional activation functional score >= 0.6 yields 1, all other cases yield -1.

Determine whether this variant has AIRE transcriptional activation functional score no lower than 0.6: F82N
-1

// repeat for L273R and report
1

And then S372C , what is it?
1

Lookup A73D
-1

What do you get for H512S ?
1

Also, A19V please.
-1

And then D503Q , what is it?
1

Query A452E next
1

Moving on to D304M
1

Next up: S239L
1

Repeat with D297G
1

Follow-up entry: F525P
-1

Quick one: S185L
-1

Note, next up: D410W
-1

Same for A193G
1

Next variant up: R203G
-1

Follow-up item: N179D
-1

Next record, please: P497E
-1

Cool, now D34Y
-1

Please answer likewise for A537R
-1

What about S521G ?
-1

Can you check A429T next?
1

Queued: T183S
1

Continue with G208R
-1

And E45C ?
-1

Continue with A61D
-1

Now try R113P .
-1

For V104P then?
-1

Similarly, K161L ?
1

Continue with A403E
1

Repeat for the following variant: P542E
-1

Same for A261E
1

Moving on to L520I
1

And the next one, D297M ?
1

Also P124F ?
1

Another: P355V
1

// query: P460S
1

Cool, now A493Y
1

Next variant up: D389I
-1

Item: P401Y
1

Record: P430E
1

And the next one, L392P ?
-1

Entry W78E please
-1
